Assay: Two-photon uncaging action cross-section (740 nm, Tsien's method, fluorescein reference)
Type: physicochemical
Conditions: KMOPS, pH 7.2; measured at 740 nm
Measurement Type: δu (two-photon uncaging action cross-section) (GM)

Reference set, count: 3
[[record]]
compound_structure_string = "CC(=O)OCc1ccc2ccc(O)c([N+](=O)[O-])c2n1"
numeric_result = 0.00

[[record]]
compound_structure_string = "CC(=O)OCc1ccc2ccc(O)c(Cl)c2n1"
numeric_result = 0.12

[[record]]
compound_structure_string = "CC(=O)OCc1ccc2ccc(O)c(C#N)c2n1"
numeric_result = 0.32


A = CC(=O)OCc1ccc2ccc(N(C)C)cc2n1
B = CC(=O)OCc1cc(Cl)c2ccc(N(C)C)cc2n1
query: Lab notebook, comparison: A versus B , higher δu (two-photon uncaging action cross-section) goes to which? Reply briefly: the label of your chosen item.
result: B
